Every entry's value here was drawn from ChEMBL document CHEMBL3272343.

experiment: Therapeutic index, ratio of UD50 for 8 hrs starved po dosed Charles River rat to ED50 for rat assessed as inhibition of adjuvant-induced arthritis; assay type: organism-based; settings: in vivo, read-out: TI
Given measured selectivity ratio, output YES if it is greater than or equal to 50 and NO if not.

>>> class_assignment("CCC1(CC(=O)O)OCCc2c1[nH]c1c(C)c(F)ccc21 (stereo not given)")
"NO"
>>> class_assignment("CCC1(CC(=O)O)OCCc2c1[nH]c1c(C)c(Cl)ccc21 (stereo not given)")
"NO"
>>> class_assignment("COc1ccc2c(c1)c(CC(=O)O)c(C)n2C(=O)c1ccc(Cl)cc1")
"NO"
>>> class_assignment("CCc1cccc2c3c([nH]c12)C(CC)(CC(=O)O)OCC3 (stereo not given)")
"YES"
